targetEntity: Fyn (UniProt P06241)
Sequence (P06241 whole entry, looked up): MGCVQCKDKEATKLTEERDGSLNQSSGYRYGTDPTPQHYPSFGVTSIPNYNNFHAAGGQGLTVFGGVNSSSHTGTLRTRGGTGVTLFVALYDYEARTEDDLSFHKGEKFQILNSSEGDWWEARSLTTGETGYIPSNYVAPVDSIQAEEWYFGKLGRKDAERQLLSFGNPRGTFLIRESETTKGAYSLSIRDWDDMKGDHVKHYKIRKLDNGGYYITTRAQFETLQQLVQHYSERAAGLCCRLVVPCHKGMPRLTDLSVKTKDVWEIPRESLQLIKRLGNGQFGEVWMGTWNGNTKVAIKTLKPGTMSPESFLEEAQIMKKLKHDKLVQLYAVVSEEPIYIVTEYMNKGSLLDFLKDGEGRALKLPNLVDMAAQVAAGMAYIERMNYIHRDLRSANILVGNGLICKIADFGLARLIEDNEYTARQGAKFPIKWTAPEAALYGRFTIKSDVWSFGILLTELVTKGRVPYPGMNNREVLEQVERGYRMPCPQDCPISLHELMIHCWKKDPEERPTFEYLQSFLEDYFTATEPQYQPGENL
methodDescription: phosphorylation enrichment, bacterial display (enrichment ratio); higher = better substrate or ligand; peptides without Tyr show the background;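 note: 11-residue human phosphosite peptides and single-mutation variants displayed on the E. coli surface, counted by deep sequencing, each peptide's frequency after selection divided by its frequency in the unselected input library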;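 note: frequency after pTyr selection over input frequency; kinase dosed for 20-30% of maximal phosphorylation in three min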
Here the recorded phosphorylation enrichment is given for each entry.
Answer field: number only, no words.

Example cases with answers are listed next.
INSERT INTO results (itemsequence, targetentity, valuemeasured) VALUES
  ('SIIKDYFHRGA [GATM_Y203]', 'Fyn (UniProt P06241)', 0.407),
  ('HDRREYSRFEK [ITGB7_Y758_Y753H]', 'Fyn (UniProt P06241)', 0.317),
  ('SVTCTCSPALN [TP53_Y126_Y126C]', 'Fyn (UniProt P06241)', 0.479),
  ('TQFWLYFAGNL [SLC25A5_Y112]', 'Fyn (UniProt P06241)', 0.376),
  ('SHSMKYFDTAV [HLA-C_Y31_R30K]', 'Fyn (UniProt P06241)', 0.356),
  ('QNTVDYYDLYG [PTPN11_Y62_G60V]', 'Fyn (UniProt P06241)', 6.01),
  ('SGPRCYTIAAL [TTR_Y125_R124C]', 'Fyn (UniProt P06241)', 0.405),
  ('GRPLFYWLTGC [LYZL6_Y140]', 'Fyn (UniProt P06241)', 0.407);

# phosphorylation enrichment of PVKSEYPSIKL [NPC2_Y119] = 0.509

Note to self: phosphorylation enrichment recorded for FGLQAYTEVKT [ALDH2_Y502_YF] was 0.498

# sequence LGIDRYHAIVF [NPSR1_Y147_S143G_YF] ; its phosphorylation enrichment = 0.732

Recorded result, GEDPIYVTLEG [RTKtide_2018] , phosphorylation enrichment: 5.05

Entry EVVGRYSGHNA [MLH1_Y183_V185G] — recorded phosphorylation enrichment = 0.414

* * *

Overview of reported phosphorylation enrichment across a group of sequences:
targetEntity: Fes (UniProt P07332)
Sequence (P07332 whole entry, looked up): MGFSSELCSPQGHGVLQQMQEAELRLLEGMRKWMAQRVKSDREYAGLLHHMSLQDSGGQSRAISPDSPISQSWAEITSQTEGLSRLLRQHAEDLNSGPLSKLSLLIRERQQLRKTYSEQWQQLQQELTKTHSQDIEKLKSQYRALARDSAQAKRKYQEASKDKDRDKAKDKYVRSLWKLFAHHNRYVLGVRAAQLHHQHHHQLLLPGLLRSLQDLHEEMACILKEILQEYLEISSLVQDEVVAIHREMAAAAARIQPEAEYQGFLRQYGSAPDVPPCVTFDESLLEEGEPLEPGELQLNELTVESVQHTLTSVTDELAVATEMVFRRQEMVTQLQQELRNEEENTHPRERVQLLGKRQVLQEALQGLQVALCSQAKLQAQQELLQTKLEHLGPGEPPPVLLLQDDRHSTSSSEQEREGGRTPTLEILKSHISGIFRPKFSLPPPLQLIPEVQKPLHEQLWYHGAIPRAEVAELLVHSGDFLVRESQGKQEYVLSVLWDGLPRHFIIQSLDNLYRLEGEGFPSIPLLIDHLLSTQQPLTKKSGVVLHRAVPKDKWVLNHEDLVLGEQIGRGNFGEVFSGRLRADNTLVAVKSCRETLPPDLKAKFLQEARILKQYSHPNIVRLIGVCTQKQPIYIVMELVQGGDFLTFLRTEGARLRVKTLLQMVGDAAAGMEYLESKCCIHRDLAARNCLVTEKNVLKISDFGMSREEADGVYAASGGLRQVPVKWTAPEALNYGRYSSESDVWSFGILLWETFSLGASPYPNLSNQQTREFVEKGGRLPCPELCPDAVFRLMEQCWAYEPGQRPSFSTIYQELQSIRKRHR
methodDescription: phosphorylation enrichment, bacterial display (enrichment ratio); higher = better substrate or ligand; peptides without Tyr show the background
Response field accepts a number only; no unit should be typed.

These recorded examples may help you get a feel for the data.
INSERT INTO results (itemsequence, targetentity, valuemeasured) VALUES
  ('IEDPYYGNDFD [ACP1_Y133_S137F]', 'Fes (UniProt P07332)', 1.47),
  ('VTQEPYELFCE [CBL_Y368_Q367P_YF]', 'Fes (UniProt P07332)', 1.32),
  ('LSVEIYDRREF [ITGB7_Y753_YF]', 'Fes (UniProt P07332)', 1.25),
  ('QEGPEYWDQET [HLA-A_Y83]', 'Fes (UniProt P07332)', 1.79),
  ('NFRTIYVNANE [KCNH2_Y475_T474I]', 'Fes (UniProt P07332)', 0.775);

Okay, next one:
PHIKTYMRPSP [TDP1_Y497] tested on Fes (UniProt P07332) gave phosphorylation enrichment: 0.688

* * *

targetEntity: Jak2 (UniProt O60674)
Sequence (O60674 whole entry, looked up): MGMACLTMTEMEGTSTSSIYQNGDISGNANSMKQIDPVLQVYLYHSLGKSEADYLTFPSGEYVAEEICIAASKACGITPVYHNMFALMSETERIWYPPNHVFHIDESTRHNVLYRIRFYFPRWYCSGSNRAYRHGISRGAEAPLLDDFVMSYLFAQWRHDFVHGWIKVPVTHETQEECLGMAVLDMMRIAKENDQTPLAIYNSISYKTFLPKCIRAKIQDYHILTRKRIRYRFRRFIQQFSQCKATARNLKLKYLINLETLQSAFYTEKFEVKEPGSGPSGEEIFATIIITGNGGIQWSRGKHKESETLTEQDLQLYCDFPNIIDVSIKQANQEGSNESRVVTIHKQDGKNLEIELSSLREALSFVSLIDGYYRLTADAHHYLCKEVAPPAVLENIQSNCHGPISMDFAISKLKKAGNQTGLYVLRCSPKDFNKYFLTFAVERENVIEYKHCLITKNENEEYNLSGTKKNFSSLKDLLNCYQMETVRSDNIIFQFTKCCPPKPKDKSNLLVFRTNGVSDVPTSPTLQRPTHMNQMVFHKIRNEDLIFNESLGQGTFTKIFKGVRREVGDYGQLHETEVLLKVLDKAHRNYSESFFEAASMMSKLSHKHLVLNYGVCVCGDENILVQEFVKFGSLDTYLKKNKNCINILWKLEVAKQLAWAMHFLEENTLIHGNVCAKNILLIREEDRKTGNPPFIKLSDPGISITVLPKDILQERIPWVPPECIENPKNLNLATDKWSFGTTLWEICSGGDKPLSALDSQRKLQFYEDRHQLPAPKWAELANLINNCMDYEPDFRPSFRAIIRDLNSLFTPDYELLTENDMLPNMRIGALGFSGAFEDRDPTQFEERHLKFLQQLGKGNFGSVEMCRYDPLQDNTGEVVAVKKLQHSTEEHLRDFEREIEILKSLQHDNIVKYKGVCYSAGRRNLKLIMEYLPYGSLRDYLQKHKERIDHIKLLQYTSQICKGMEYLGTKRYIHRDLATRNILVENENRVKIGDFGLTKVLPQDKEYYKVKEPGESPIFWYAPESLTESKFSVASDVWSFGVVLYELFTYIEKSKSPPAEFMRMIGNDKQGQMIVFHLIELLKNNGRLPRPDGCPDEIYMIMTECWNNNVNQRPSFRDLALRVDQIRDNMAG
methodDescription: phosphorylation enrichment, bacterial display (enrichment ratio); higher = better substrate or ligand; peptides without Tyr show the background
readoutName: phosphorylation enrichment
Answer with a number only.

The examples below pair each entry with its known result.
INSERT INTO measurements (itemsequence, readoutname, valuemeasured) VALUES
  ('FGISGYVVDSV [MAP2K3_Y214_L215V]', 'phosphorylation enrichment', 0.761),
  ('KVGNEYVNKGQ [MYH7_Y410_T412N]', 'phosphorylation enrichment', 0.424),
  ('YCIDHYLGKEM [G6PD_Y202_R198C]', 'phosphorylation enrichment', 0.75);

The sequence VLTSKYRGGGG [HBA1_Y141] showed phosphorylation enrichment equal to 0.454

The sequence listed as AEVDTYCRHNF [HLA-DRB1_Y107_A103E_YF] has a reported phosphorylation enrichment of 0.719

// recorded phosphorylation enrichment for GIVEDYRPPLY [ACVRL1_Y421_F425L] : 0.675

In plain terms, CRIELYRIVES [IGFBP1_Y181_V183I] has a documented phosphorylation enrichment of 1.28

So for VIKDKYPKAHF [APTX_Y209_R213H_YF] , the logged phosphorylation enrichment turned out to be 0.534

# phosphorylation enrichment of EVVGRYSGHNA [MLH1_Y183_V185G] = 0.397

Looking up VREIRYQGGNR [VWF_Y1570] , I see its phosphorylation enrichment listed as 0.968

Reported phosphorylation enrichment for EHFSFYGMKAV [SLC15A2_Y61_R57H_YF] was 0.901

* * *

targetEntity: EPHB1 (UniProt P54762)
Sequence (P54762 whole entry, looked up): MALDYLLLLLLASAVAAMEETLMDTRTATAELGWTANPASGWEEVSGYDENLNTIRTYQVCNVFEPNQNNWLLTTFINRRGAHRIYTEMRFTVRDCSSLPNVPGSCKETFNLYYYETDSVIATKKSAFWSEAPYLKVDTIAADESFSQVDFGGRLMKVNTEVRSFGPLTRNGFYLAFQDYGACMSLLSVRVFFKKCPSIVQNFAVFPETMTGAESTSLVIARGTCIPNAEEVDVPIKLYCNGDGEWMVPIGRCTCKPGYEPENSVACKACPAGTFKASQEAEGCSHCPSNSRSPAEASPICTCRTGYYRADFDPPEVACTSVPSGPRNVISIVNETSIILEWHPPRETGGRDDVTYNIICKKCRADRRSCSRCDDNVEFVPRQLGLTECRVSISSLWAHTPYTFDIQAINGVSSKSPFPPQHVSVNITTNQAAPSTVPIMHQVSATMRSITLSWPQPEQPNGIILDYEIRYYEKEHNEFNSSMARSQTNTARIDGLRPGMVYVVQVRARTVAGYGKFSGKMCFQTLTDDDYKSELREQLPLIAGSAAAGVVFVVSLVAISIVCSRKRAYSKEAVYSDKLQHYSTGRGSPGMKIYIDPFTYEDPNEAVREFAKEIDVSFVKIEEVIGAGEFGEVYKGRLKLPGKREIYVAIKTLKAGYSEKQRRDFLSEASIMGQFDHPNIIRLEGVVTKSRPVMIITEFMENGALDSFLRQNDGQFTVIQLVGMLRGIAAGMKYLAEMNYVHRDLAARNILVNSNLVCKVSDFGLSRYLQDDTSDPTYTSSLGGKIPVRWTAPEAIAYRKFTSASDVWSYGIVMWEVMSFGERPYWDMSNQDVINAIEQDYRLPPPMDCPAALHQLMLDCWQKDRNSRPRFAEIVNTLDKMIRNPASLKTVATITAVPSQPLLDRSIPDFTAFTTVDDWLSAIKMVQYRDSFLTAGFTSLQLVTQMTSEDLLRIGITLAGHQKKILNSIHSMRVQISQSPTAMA
methodDescription: phosphorylation enrichment, bacterial display (enrichment ratio); higher = better substrate or ligand; peptides without Tyr show the background
Below is a list of entries, each paired with its recorded phosphorylation enrichment value.
Output spec: single numeric token, no unit.

Example entries begin here.
INSERT INTO results (itemsequence, valuemeasured) VALUES
  ('VHNLDYFKMTT [FGFR3_Y647_K650M_YF]', 0.456),
  ('GRPLSYWLTGC [LYZL6_Y140_F139S]', 0.686),
  ('QDLTDYLMKIL [ACTA2_Y190_R185Q]', 0.523),
  ('PLYSKYWPNHI [GREB1L_Y1560_R1558S]', 19.1);

Lookup result for QEGPEYWDQET [HLA-A_Y83] ; measured phosphorylation enrichment: 0.809

In plain terms, FETDFYQKGGK [INSR_Y1190_R1191Q_YF] has a documented phosphorylation enrichment of 0.834

Recorded result, CGPLLYGLVHQ [PRKCG_Y122_S119P] , phosphorylation enrichment: 2.72

phosphorylation enrichment measured on LFLACYCIGGG [UBD_Y161] = 0.803

Please fill in: phosphorylation enrichment reported for CTTIHHNFMCN [TP53_Y234_Y234H_YF] = 0.482

# sequence YSQNIYIQNRN [PKP2_Y631] ; its phosphorylation enrichment = 0.424

// sample ARTNEYKIIRT [INA_Y87] , its phosphorylation enrichment was 0.468

Noted for SMAKYYASEIA [ACADSB_Y373] : its phosphorylation enrichment reads 0.459

Given item ARLEFYENEKK [IRS1_Y47_YF] , the value recorded as its phosphorylation enrichment is 0.623

* * *

Entries and their phosphorylation enrichment values follow.
targetEntity: Hck (UniProt P08631)
Sequence (P08631 whole entry, looked up): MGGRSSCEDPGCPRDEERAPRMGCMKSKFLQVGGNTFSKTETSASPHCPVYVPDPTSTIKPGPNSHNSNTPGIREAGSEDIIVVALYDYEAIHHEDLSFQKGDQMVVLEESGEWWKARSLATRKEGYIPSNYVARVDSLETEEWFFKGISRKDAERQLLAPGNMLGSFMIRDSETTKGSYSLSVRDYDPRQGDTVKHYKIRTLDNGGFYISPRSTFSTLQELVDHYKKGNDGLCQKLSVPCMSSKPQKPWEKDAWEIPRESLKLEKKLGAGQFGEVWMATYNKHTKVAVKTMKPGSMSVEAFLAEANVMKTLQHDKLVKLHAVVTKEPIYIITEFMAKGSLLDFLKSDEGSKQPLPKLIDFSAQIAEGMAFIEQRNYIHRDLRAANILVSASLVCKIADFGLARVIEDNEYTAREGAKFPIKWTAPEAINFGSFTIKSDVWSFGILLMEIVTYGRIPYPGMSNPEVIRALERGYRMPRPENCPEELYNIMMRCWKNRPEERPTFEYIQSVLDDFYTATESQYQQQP
methodDescription: phosphorylation enrichment, bacterial display (enrichment ratio); higher = better substrate or ligand; peptides without Tyr show the background
No unit in the answer, only the number.

Solved entries:
INSERT INTO results (itemsequence, readoutname, valuemeasured) VALUES
  ('QRAADYFSQQM [GBP6_Y333_YF]', 'phosphorylation enrichment', 0.488),
  ('VPLLEYYRDIF [CDAN1_Y712]', 'phosphorylation enrichment', 0.508);

Entry KLVRLYAVVTR [LYN_Y306] ; phosphorylation enrichment = 0.49

* * *

Measured phosphorylation enrichment values are reported for all entries that follow.
targetEntity: MERTK (UniProt Q12866)
Sequence (Q12866 whole entry, looked up): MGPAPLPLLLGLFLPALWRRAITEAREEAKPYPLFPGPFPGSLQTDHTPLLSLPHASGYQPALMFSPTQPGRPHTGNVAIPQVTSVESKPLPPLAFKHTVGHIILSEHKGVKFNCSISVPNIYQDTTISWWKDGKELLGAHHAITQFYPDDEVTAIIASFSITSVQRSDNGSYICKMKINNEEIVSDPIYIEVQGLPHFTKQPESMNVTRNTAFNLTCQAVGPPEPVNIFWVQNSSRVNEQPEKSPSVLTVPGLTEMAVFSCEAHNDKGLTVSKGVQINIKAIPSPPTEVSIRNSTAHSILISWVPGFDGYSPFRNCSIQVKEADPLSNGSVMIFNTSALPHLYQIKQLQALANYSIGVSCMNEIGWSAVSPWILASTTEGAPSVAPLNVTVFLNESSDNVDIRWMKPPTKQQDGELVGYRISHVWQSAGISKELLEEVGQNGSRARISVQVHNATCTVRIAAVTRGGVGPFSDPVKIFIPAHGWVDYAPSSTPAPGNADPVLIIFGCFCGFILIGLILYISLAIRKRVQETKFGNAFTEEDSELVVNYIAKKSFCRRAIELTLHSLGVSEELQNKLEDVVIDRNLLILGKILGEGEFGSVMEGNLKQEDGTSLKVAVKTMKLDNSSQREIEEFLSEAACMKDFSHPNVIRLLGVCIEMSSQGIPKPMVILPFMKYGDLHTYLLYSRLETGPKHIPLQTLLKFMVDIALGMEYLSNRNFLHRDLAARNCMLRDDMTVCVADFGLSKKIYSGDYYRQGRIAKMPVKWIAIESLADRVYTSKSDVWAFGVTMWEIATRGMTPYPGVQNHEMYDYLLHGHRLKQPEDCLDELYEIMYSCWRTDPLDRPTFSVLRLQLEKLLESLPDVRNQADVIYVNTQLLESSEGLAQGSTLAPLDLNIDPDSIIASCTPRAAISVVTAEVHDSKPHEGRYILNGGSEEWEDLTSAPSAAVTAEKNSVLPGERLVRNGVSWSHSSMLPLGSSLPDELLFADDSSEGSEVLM
methodDescription: phosphorylation enrichment, bacterial display (enrichment ratio); higher = better substrate or ligand; peptides without Tyr show the background

INSERT INTO assay_data (itemsequence, valuemeasured) VALUES
  ('LAGRYYALRSM [CKB_Y174_K177R]', 3.63),
  ('SVCPDYDLCSI [SQSTM1_Y148_V153I]', 0.616);

For ATATDYHTTSH [SLC4A1_Y46] on MERTK (UniProt Q12866), measured phosphorylation enrichment was 0.438

Record for PVQAPYQKVVA [HBB_Y131_A130P] under target or system MERTK (UniProt Q12866): phosphorylation enrichment reported as 0.691

* * *

targetEntity: MERTK (UniProt Q12866)
methodDescription: phosphorylation enrichment, bacterial display (enrichment ratio); higher = better substrate or ligand; peptides without Tyr show the background
readoutName: phosphorylation enrichment

// solved cases for phosphorylation enrichment follow
INSERT INTO results (itemsequence, valuemeasured) VALUES
  ('AVAFVYFKSIG [ADGRL4_Y301_YF]', 0.471),
  ('GARGRYIMGGP [TNK1_Y277_V278I]', 0.468),
  ('SSYSGYIMMPN [LEF1_Y114]', 2.47),
  ('LFIGQYSGKKE [L1CAM_Y1229_S1224L]', 0.972),
  ('QNTGDDFDLFG [PTPN11_Y62_Y62D_YF]', 0.634);

Turning now to a further record.
Recorded phosphorylation enrichment (sequence YETVKYFNNER [ABCB7_Y345] ): 0.844

* * *

Tested on: AncSZ
methodDescription: phosphorylation enrichment, bacterial display (enrichment ratio); higher = better substrate or ligand; peptides without Tyr show the background
Entry flag: t if phosphorylation enrichment reaches 0.7; f if it does not.

Example entries and their recorded answers appear below.
INSERT INTO results (itemsequence, discretelabel) VALUES
  ('TFMKQYPKVFL [CNBD1_Y70]', 't'),
  ('LKLKAYRFSIS [LCT_Y974_V971L]', 't'),
  ('IDQDKYAVRFI [FLNA_Y2388]', 't'),
  ('VDTRAYLTSAT [MT-CO1_Y304_F305L]', 'f'),
  ('VGGRIYIDDGL [PKLR_Y218]', 't');

Is it the case that EPVSDYINADI [PTPN11_Y304_N308D] has phosphorylation enrichment reaching or exceeding 0.7? t

Decide: phosphorylation enrichment of ELAVNYQEQAS [SLC9A9_Y591_I589V] >= 0.7? t

Decide: phosphorylation enrichment of RLAKTYETTLE [ALB_Y377] >= 0.7? t

# bool: phosphorylation enrichment of RRGTRYMFSRP [RPL21_Y13] >= 0.7 t

Does the reported phosphorylation enrichment for FIILIYAMKKK [SLCO1B1_Y645_YF] fall at or above the 0.7 mark? f

Has LFSLGYHQSLW [GANAB_Y396_R400L] a recorded phosphorylation enrichment greater than or equal to 0.7? t

Quick check: does AFPVSYSSSSA [RET_Y687_G691S] have phosphorylation enrichment greater than or equal to 0.7? f

Reported phosphorylation enrichment reaches at least 0.7 for EQLRAYLEGTC [HLA-C_Y183] ? t

Does KACKHYLTKRT [ZBTB5_Y118_T121K] have a reported phosphorylation enrichment of at least 0.7? f

API: above_or_equal(metric=phosphorylation enrichment, cutoff=0.7) for item LLQEWYMIISR [HUWE1_Y4066_R4063Q] t
